Assay: drug combination growth inhibition, ovarian cancer – cell-based, oncology-focused library, rucaparib conditional, profiling panel (AID 1508598)
Conditions: patient-derived ovarian cancer cells, CellTiter-Glo viability, 144 h; at 0.00488 µM; OCI-P5x cells; with rucaparib 20 µM; 100% = cells with rucaparib alone
Activity calls are given as the source filed them.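 How the source made its calls: active means normalized viability below 100% at a tested concentration; inactive means the rest.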
Labels: true (1) for active, false (0) for inactive

CN(C)Cc1c(C(=O)NCCOc2ccc(C(=O)NO)cc2)oc2ccccc12; true (1)
COc1c(C)cnc(Cn2cnc3c(Cl)nc(N)nc32)c1C; false (0)
COc1ccc(COc2cc3oc(=O)c4cc(C(C)O)ccc4c3cc2OC)cc1 (stereo not drawn); true (1)
CNC(=O)c1ccc(N2C(=S)N(c3ccc(C#N)c(C(F)(F)F)c3)C(=O)C2(C)C)cc1F; true (1)
C#Cc1cccc(Nc2ncnc3cc(OC)c(OCCCCCCC(=O)NO)cc23)c1; false (0)
CS(=O)(=O)c1cccc(CNc2nc(Nc3ccc4c(c3)CCC(=O)N4)ncc2C(F)(F)F)c1; true (1)
CN1CCC(CNc2ccc3ncc(-c4cccc(OC(F)(F)F)c4)n3n2)CC1; true (1)
Cc1cccc(-c2nn3c(c2-c2ccnc4ccc(C(N)=O)cc24)CCC3)n1; true (1)
O=C(/C=C/c1cccc(S(=O)(=O)Nc2ccccc2)c1)NO; false (0)
S=C(NCc1ccc2c(c1)OCO2)N1CCN(c2ncnc3c2oc2ccccc23)CC1; true (1)
Cc1ccc(S(=O)(=O)Nc2nc3ccccc3nc2Nc2ccc3nsnc3c2)cc1; false (0)
NC(=O)c1ccc(I)c([N+](=O)[O-])c1; false (0)
CS(=O)(=O)N1CCN(Cc2cc3nc(-c4cccc5[nH]ncc45)nc(N4CCOCC4)c3s2)CC1; true (1)
C#Cc1cccc(Nc2ncnc3cc(OCCOC)c(OCCO)cc23)c1; false (0)
COc1cc2nccc(Oc3ccc(NC(=O)C4(C(=O)Nc5ccc(F)cc5)CC4)cc3)c2cc1OC; true (1)
C[C@H](NC(=O)Cc1cc(F)cc(F)c1)C(=O)N[C@@H]1C(=O)N(C)c2ccccc2-c2ccccc21; true (1)
COc1ccc2cc(-c3nc(-c4ccc(S(C)=O)cc4)[nH]c3-c3ccncc3)ccc2c1 (stereo not drawn); false (0)
CCN(CCO)CCCOc1ccc2c(Nc3cc(CC(=O)Nc4cccc(F)c4)[nH]n3)ncnc2c1; false (0)
